System: HCT-15 colon
assay_info: NCI-60 one-dose screen, 48 h
experimental_parameters: 10 µM unless noted
This is part of a sample that, as a whole, favours compounds with a hit. Of some 83,000 tested, about 20% had one in any assay. Activity calls are given as the source filed them. How the source made its calls: active means growth percent below 10; inactive means the rest.
Please answer using one outcome listed in True = active, False = inactive

[Q] Please indicate how the test categorized COc1cc(Nc2cn[nH]c2-c2ccc(Cl)cc2)cc(OC)c1OC .
[A] False

[Q] Please indicate how the test categorized COc1nc2ccc(C)cc2cc1-c1nc2c(cnn2-c2ccccc2)c(=O)[nH]1 .
[A] False

[Q] Please indicate how the test categorized CCCCCCCCCCCCCCCCCCOc1ccccc1CC(=O)OCC[N+](CC)(CC)CC .
[A] False

[Q] Please indicate how the test categorized COc1ccc(-c2ncnc3c2ncn3CC#CCCl)cc1 .
[A] False

[Q] Please indicate how the test categorized O=[N+]([O-])c1ccc(Oc2nc(Nc3ccc(O[C@H]4CO[C@H]5[C@@H]4OC[C@@H]5O)c(Cl)c3)ncc2F)c(Cl)c1 .
[A] False

[Q] Please indicate how the test categorized Cc1nc(NC(=O)COc2ccc(/C=C3\Cc4ccc(Cl)cc4C3=O)cc2)sc1C .
[A] False

[Q] Please indicate how the test categorized O=c1ccc(N=Nc2ccccc2)ccc1Cl .
[A] True

[Q] Please indicate how the test categorized COc1cc(CCCO)c(OC)c(OC)c1OC .
[A] False

[Q] Please indicate how the test categorized Cc1ccc2sc3c(NCCN)nc4ccccc4c3c(=O)c2c1 .
[A] False

[Q] Please indicate how the test categorized COC1=C(C)C(=O)c2c(c(CCCl)c3n2CCC3OC(C)=O)C1=O (stereo unspecified) .
[A] True

[Q] Please indicate how the test categorized COc1ccc(C2NC(=O)C(C#N)c3c2sc2c(F)cccc32)c(OC)c1 (stereo unspecified) .
[A] False

----------
Tested on: SK-MEL-5 melanoma
assay_info: NCI-60 one-dose screen, 48 h (100 = growth as untreated, 0 = no growth, -100 = all killed)
experimental_parameters: 10 µM unless noted
About 83,000 compounds went through this panel and 20% of them were active in at least one assay; those are over-represented in the sample as a whole.
Label Fulfilled when growth is strictly below 50%; otherwise label Not fulfilled.

[Q] Decide: growth of COc1ccc(-c2conc2-c2ccccc2)cc1 strictly below 50%?
[A] Fulfilled

[Q] Decide: growth of Cc1ccc(C(=O)N/N=C/c2cccc(Oc3ccccc3)c2)cn1 strictly below 50%?
[A] Fulfilled

[Q] Decide: growth of O=C(Nc1ccc(Cl)cc1F)c1cc(Cl)ccc1O strictly below 50%?
[A] Fulfilled

[Q] Decide: growth of NCCOc1ncccc1/C=C1\c2ccccc2-c2ccc(C(F)F)cc21 strictly below 50%?
[A] Not fulfilled

[Q] Decide: growth of O=c1ccc(N=Nc2ccc([N+](=O)[O-])cc2)ccc1O strictly below 50%?
[A] Fulfilled

[Q] Decide: growth of COc1nc2ccccc2cc1-c1nc2c(cnn2-c2ccc(Br)cc2)c(=O)[nH]1 strictly below 50%?
[A] Fulfilled

[Q] Decide: growth of O=[N+]([O-])c1ccc(Cl)c(-c2cc(CCCCO)on2)c1 strictly below 50%?
[A] Not fulfilled

[Q] Decide: growth of Cn1cc(C(=O)c2nc(-c3cn(C)c4ccc(F)cc34)no2)c2cc(F)ccc21 strictly below 50%?
[A] Not fulfilled

[Q] Decide: growth of Cc1nc(/N=C(\N)NC(=O)Nc2cccc(Cl)c2)sc1C strictly below 50%?
[A] Not fulfilled

[Q] Decide: growth of COc1ccc(OC)c(/C=C2\Oc3cc(OCCN4CCC(Cc5ccccc5)CC4)ccc3C2=O)c1 strictly below 50%?
[A] Not fulfilled

[Q] Decide: growth of N/C(=N\c1nc2ccccc2s1)NC(=O)Nc1cccc2ccccc12 strictly below 50%?
[A] Fulfilled

[Q] Decide: growth of N#CC1=C(N)Oc2c(sc3c(Br)cccc23)C1c1ccc(Br)cc1 (stereo unspecified) strictly below 50%?
[A] Fulfilled

[Q] Decide: growth of COc1cc(C2CC(c3ccc(N(C)C)cc3)=NN2C(C)=O)cc(OC)c1OC (stereo unspecified) strictly below 50%?
[A] Fulfilled

[Q] Decide: growth of COC(=O)CCC/C=C\C[C@H]1C=CC(=O)/C1=C/C[C@@H](O)CCc1cccc(C(F)(F)F)c1 strictly below 50%?
[A] Fulfilled

[Q] Decide: growth of O=C1c2cccc3cccc(c23)C(=O)N1Nc1nc(NC2CCCCC2)nc(N2CCOCC2)n1 strictly below 50%?
[A] Not fulfilled

[Q] Decide: growth of O=C(Nc1c2ccccc2nc2ccccc12)c1ccccc1CN1C(=O)c2ccccc2C1=O strictly below 50%?
[A] Fulfilled

[Q] Decide: growth of N#Cc1cccc(NC(=O)c2cc(-c3ccc(F)cc3F)ccc2O)c1 strictly below 50%?
[A] Fulfilled

[Q] Decide: growth of COc1ccc(-c2nc3sc(-c4ccccc4)cn3n2)cc1 strictly below 50%?
[A] Fulfilled

[Q] Decide: growth of COc1cc(/C=C/C(=O)/C=C/c2cc(OC)c3c(c2OC)OCO3)c(OC)c2c1OCO2 strictly below 50%?
[A] Fulfilled

[Q] Decide: growth of O=C(Oc1cccc2ccccc12)Oc1cccc2ccccc12 strictly below 50%?
[A] Not fulfilled

[Q] Decide: growth of O=C(N/N=C/[C@H](O)[C@@H](O)[C@@H](O)[C@H](O)CO)c1ccc(NC(=O)c2cccnc2)cc1 strictly below 50%?
[A] Not fulfilled
